# test_system: T1, Human CD3 on Human CD3+ Jurkat cells (human, UniProt P07766 23-207)
# T1 construct: whole, on cells; CD3 complex on cells; also called hCD3
# T1 sequence (P07766 23-207): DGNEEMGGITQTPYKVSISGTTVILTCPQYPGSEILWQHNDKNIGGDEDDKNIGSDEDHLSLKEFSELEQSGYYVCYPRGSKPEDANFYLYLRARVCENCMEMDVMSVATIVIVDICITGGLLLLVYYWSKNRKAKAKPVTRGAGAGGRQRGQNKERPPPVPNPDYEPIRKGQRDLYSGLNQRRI
# assay_procedure: cell binding hCD3, fold over background
readout_kind: Cell Binding hCD3 (FOB)

binder: ADI-45973 (antibody, V domains shown, also called Ab9) VH: QVQLVQSEAEVKKPGASVKVSCKASGFNIKDYYMHWVRQAPGQRLEWIGWIDLENANTVYDAKFQGRVTITRDTSASTAYMELSSLRSEDTAVYYCARDAYGRYFYDVWGQGTLVTVSS VL: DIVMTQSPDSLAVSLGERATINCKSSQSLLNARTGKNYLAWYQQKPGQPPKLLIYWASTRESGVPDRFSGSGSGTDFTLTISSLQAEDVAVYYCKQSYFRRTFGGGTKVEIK
readout_kind: Cell Binding hCD3 (FOB)
result: 55 FOB

binder: ADI-42596 (antibody, V domains shown, also called Ab2) VH: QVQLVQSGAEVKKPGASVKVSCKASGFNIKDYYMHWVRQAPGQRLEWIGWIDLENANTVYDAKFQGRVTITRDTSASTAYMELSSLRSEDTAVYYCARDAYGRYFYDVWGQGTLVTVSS VL: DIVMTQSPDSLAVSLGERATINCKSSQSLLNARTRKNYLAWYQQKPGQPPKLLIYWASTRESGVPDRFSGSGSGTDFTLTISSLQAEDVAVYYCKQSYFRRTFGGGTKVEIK
readout_kind: Cell Binding hCD3 (FOB)
result: 29 FOB

Attention now shifts to the item below.
Entry under test: ADI-46358 (antibody, V domains shown, also called Ab31) VH: QVQLVQSGAEVKKPGASVKVSCKASGFNIKDYYMHWVRQAPGQRLEWIGWIDLENANTVYDAKFQGRVTITRDTSASTAYMELSNLRSEDTAVYYCARDAYGRYFYDVWGQGTLVTVSS VL: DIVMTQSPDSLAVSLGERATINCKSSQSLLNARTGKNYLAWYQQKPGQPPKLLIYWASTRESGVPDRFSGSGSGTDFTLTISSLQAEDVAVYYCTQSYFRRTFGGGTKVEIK . Its Cell Binding hCD3 (FOB) was 35 FOB
